Entry source: patent US20250340649A1

biological target: T1, HER2 on the surface of HER2+ cancer cells (BT474, SKOV-3) (human, UniProt P04626 23-1255); assay: flow cytometry on BT-474 cells (HER2+), 100 nM binding sites
T1 construct: whole, on cells; also called human epidermal growth factor receptor 2
quantity_name: Mean (MFI)
Give a plain numeric answer without units written out.

The following binders have reported results that may help.
D6 anti-HER2 VHH (VHH) VHH: QVQLQESGGGLVQAGGSLTLSCAASGRTFSTYVVGWFRQAPGKERESVAAIGWASNSPYYADSVKGRFTISRDNTKNTVYLQMKSLKPDDTAVYYCAADSYPRRWDRESDFGSWGQGTQVTVSS = 96100
H7 anti-HER2 VHH (VHH) VHH: QVQLQESGGGLVQAGGSLRLSCAASGHTLSTYVVAWFRQAPGKERESVAAIGWSTRSPYYADSVKGRFTISEDNTKNTVYLQMNSLKPDDTAVYYCAADSYPRRWDRESDFGSWGQGTQVTVSS = 100000

# input Consider the binder E9 anti-HER2 VHH (VHH) VHH: QVQLQESGGGSVQAGGSLKLSCAASGRTLSAYVVGWFRQAPGRERESVAAIGWSTHSVYYADSVKGRFTISRDNTENTVYLQMNSLKPDDTAVYYCAADSSPRRWDRESDFGSWGQGTQVTVSS and give its measured Mean (MFI).
# output 97900
